Measured values drawn from ChEMBL document CHEMBL5303573 for this set.

settings: bacteroides fragilis, 12 h, 2 µM
Description: The drug is tested on Bacteroides fragilis strain: DS-208 for biotransformation. The drug concentrations were measured before and after a 12-h incubation by liquid-chromatography-coupled mass spectrometry (LC–MS)
Non-standard residues stand in square brackets, D forms with d. Residues, ends and D or L forms follow the SMILES beside them. pGlu = O=C1CC[C@@H](C(=O)O)N1; Thz = O=C(O)[C@@H]1CSCN1
property-measured: Bacterial Biotransformation

Here's what some known entries look like.
compound: CC(=O)OCC(=O)[C@@]12N=C(C)O[C@@H]1C[C@H]1[C@@H]3CCC4=CC(=O)C=C[C@]4(C)[C@H]3[C@@H](O)C[C@@]12C
Bacterial Biotransformation: Compound metabolized
//
compound: C[C@H]1O[C@@H](O[C@H]2[C@@H](O)C[C@H](O[C@H]3[C@@H](O)C[C@H](O[C@H]4CC[C@@]5(C)[C@H](CC[C@@H]6[C@@H]5C[C@@H](O)[C@]5(C)[C@@H](C7=CC(=O)OC7)CC[C@]65O)C4)O[C@@H]3C)O[C@@H]2C)C[C@H](O)[C@@H]1O
Bacterial Biotransformation: Compound metabolized
//
compound: CN1CCc2c(c3ccccc3n2Cc2ccccc2)C1.CN1CCc2c(c3ccccc3n2Cc2ccccc2)C1.O=S(=O)(O)c1cccc2c(S(=O)(=O)O)cccc12
Bacterial Biotransformation: Compound NOT metabolized
//
compound: O=C1CC[C@@H](C(=O)N2CSC[C@H]2C(=O)O)N1 [PIDOTIMOD] ([pGlu]-[Thz]-OH)
Bacterial Biotransformation: Compound metabolized
//
compound: O=c1[nH]c2ccccc2n1CCCN1CCC(n2c(=O)[nH]c3cc(Cl)ccc32)CC1
Bacterial Biotransformation: Compound NOT metabolized
//
compound: CCOC(=O)[C@H](CCc1ccccc1)N[C@@H](C)C(=O)N1CCC[C@H]1C(=O)O.O=C(O)/C=C\C(=O)O [ENALAPRIL MALEATE]
Bacterial Biotransformation: Compound NOT metabolized
//
compound: OCCN(CCO)c1nc(N2CCCCC2)c2nc(N(CCO)CCO)nc(N3CCCCC3)c2n1
Bacterial Biotransformation: Compound metabolized
//
compound: CC(C(=O)O)c1ccc2c(c1)Cc1cccnc1O2 (stereo unspecified)
Bacterial Biotransformation: Compound metabolized

Query :: // lookup Bacterial Biotransformation for O=C(O)COCCN1CCN(C(c2ccccc2)c2ccc(Cl)cc2)CC1 (stereo unspecified)
Result :: Compound metabolized

Query :: // lookup Bacterial Biotransformation for `Nc1c2c(nc3ccccc13)CCCC2`
Result :: Compound NOT metabolized

Query :: // lookup Bacterial Biotransformation for `COC(=O)Nc1nc2ccc(C(=O)c3ccccc3)cc2[nH]1`
Result :: Compound metabolized

Query :: // lookup Bacterial Biotransformation for `Cc1nc(Nc2ncc(C(=O)Nc3c(C)cccc3Cl)s2)cc(N2CCN(CCO)CC2)n1.O`
Result :: Compound metabolized

Query :: // lookup Bacterial Biotransformation for O=C(NCc1ccccc1)OCCO [BURAMATE]
Result :: Compound NOT metabolized

Query :: // lookup Bacterial Biotransformation for C[N+]12CCC(CC1)C(OC(=O)C(O)(c1ccccc1)c1ccccc1)C2.[Br-] (stereo unspecified) [CLIDINIUM BROMIDE]
Result :: Compound NOT metabolized

Query :: // lookup Bacterial Biotransformation for CC(=O)OCC(=O)NCCCOc1cccc(CN2CCCCC2)c1 [ROXATIDINE ACETATE]
Result :: Compound metabolized

Query :: // lookup Bacterial Biotransformation for CC(=O)SCC(Cc1ccccc1)C(=O)NCC(=O)OCc1ccccc1 (stereo unspecified)
Result :: Compound metabolized

----------
details: bacteroides fragilis, 12 h, 2 µM
Description: The drug is tested on Bacteroides fragilis strain: NCTC 9343 for biotransformation. The drug concentrations were measured before and after a 12-h incubation by liquid-chromatography-coupled mass spectrometry (LC–MS)
property-measured: Bacterial Biotransformation

Here's what some known entries look like.
compound: CC(Oc1c(Cl)cccc1Cl)C1=NCCN1 (centres undefined)
property-measured: Bacterial Biotransformation
result: Compound metabolized
--
compound: Cc1nc(-c2ccc(OCC(C)C)c(C#N)c2)sc1C(=O)O
property-measured: Bacterial Biotransformation
result: Compound NOT metabolized
--
compound: Cc1ccc(S(=O)(=O)NC(=O)NN2CC3CCCC3C2)cc1 (centres undefined) [GLICLAZIDE]
property-measured: Bacterial Biotransformation
result: Compound NOT metabolized
--
compound: COc1ccc2c(c1)c(CC(=O)O)c(C)n2C(=O)c1ccc(Cl)cc1
property-measured: Bacterial Biotransformation
result: Compound metabolized

Query :: // lookup Bacterial Biotransformation for CNCCC(Oc1ccc(C(F)(F)F)cc1)c1ccccc1 (centres undefined)
Result :: Compound metabolized

Query :: // lookup Bacterial Biotransformation for CC(=O)SCC(Cc1ccccc1)C(=O)NCC(=O)OCc1ccccc1 (centres undefined)
Result :: Compound metabolized

Query :: // lookup Bacterial Biotransformation for `CCOC(=O)[C@H](CCc1ccccc1)N[C@@H](C)C(=O)N1Cc2ccccc2C[C@H]1C(=O)O`
Result :: Compound metabolized

Query :: // lookup Bacterial Biotransformation for COc1ccccc1OCCNCC(O)COc1cccc2[nH]c3ccccc3c12 (centres undefined)
Result :: Compound metabolized

Query :: // lookup Bacterial Biotransformation for CC(C)(C)NC[C@H](O)COc1ccccc1C1CCCC1.CC(C)(C)NC[C@H](O)COc1ccccc1C1CCCC1.O=S(=O)(O)O [PENBUTOLOL SULFATE]
Result :: Compound NOT metabolized

----------
settings: bacteroides thetaiotaomicron, 12 h, 2 µM
Description: The drug is tested on Bacteroides thetaiotaomicron strain: 7330 for biotransformation. The drug concentrations were measured before and after a 12-h incubation by liquid-chromatography-coupled mass spectrometry (LC–MS)
property-measured: Bacterial Biotransformation

molecule: CC(N)C12CC3CC(CC(C3)C1)C2 (configuration not stated) [RIMANTADINE]
Bacterial Biotransformation: Compound NOT metabolized

molecule: CC(NC(C)(C)C)C(=O)c1cccc(Cl)c1 (configuration not stated) [BUPROPION]
Bacterial Biotransformation: Compound NOT metabolized

molecule: N#Cc1ccc(C(c2ccc(C#N)cc2)n2cncn2)cc1 [LETROZOLE]
Bacterial Biotransformation: Compound NOT metabolized

molecule: COc1ccccc1OCCNCC(O)COc1cccc2[nH]c3ccccc3c12 (configuration not stated) [CARVEDILOL]
Bacterial Biotransformation: Compound metabolized

molecule: O=c1n(CCCN2CCN(c3cccc(Cl)c3)CC2)nc2ccccn12 [TRAZODONE]
Bacterial Biotransformation: Compound NOT metabolized

molecule: COc1ccc2[nH]c([S+]([O-])Cc3ncc(C)c(OC)c3C)nc2n1 (configuration not stated) [TENATOPRAZOLE]
Bacterial Biotransformation: Compound metabolized

Query :: // lookup Bacterial Biotransformation for COc1ccc(C(CN(C)C)C2(O)CCCCC2)cc1 (configuration not stated) [VENLAFAXINE]
Result :: Compound NOT metabolized

----------
experiment: The drug is tested on Clostridium asparagiforme strain: DSM15981 for biotransformation. The drug concentrations were measured before and after a 12-h incubation by liquid-chromatography-coupled mass spectrometry (LC–MS); type: ADME; design: dose 2 uM, timepoint 0 vs 12 hours; settings: enterocloster asparagiformis, 2 µM
property-measured: Bacterial Biotransformation

Here's what some known entries look like.
compound: Br.COc1ccc2c(c1)[C@]13CCCC[C@@H]1[C@H](C2)N(C)CC3.O [DEXTROMETHORPHAN HYDROBROMIDE]
Bacterial Biotransformation: Compound NOT metabolized
//
compound: Cc1nc2n(c(=O)c1CCN1CCC(c3noc4cc(F)ccc34)CC1)CCCC2O (stereo unspecified)
Bacterial Biotransformation: Compound metabolized
//
compound: CCc1nn(CCCN2CCN(c3cccc(Cl)c3)CC2)c(=O)n1CCOc1ccccc1
Bacterial Biotransformation: Compound NOT metabolized
//
compound: O=C([O-])C[C@H](O)C[C@H](O)/C=C/c1c(C2CC2)nc2ccccc2c1-c1ccc(F)cc1.O=C([O-])C[C@H](O)C[C@H](O)/C=C/c1c(C2CC2)nc2ccccc2c1-c1ccc(F)cc1.[Ca+2]
Bacterial Biotransformation: Compound NOT metabolized
//
compound: CC(C)C[C@H]1C(=O)N2CCC[C@H]2[C@]2(O)O[C@](NC(=O)[C@@H]3C=C4c5cccc6[nH]c(Br)c(c56)C[C@H]4N(C)C3)(C(C)C)C(=O)N12.CS(=O)(=O)O [BROMOCRIPTINE MESYLATE]
Bacterial Biotransformation: Compound metabolized

Query :: // lookup Bacterial Biotransformation for CCOC(=O)[C@H](CCc1ccccc1)N[C@@H](C)C(=O)N1CCC[C@H]1C(=O)O.O=C(O)/C=C\C(=O)O [ENALAPRIL MALEATE]
Result :: Compound NOT metabolized

----------
conditions: limosilactobacillus reuteri cf48-3a, 12 h, 2 µM
Description: The drug is tested on Lactobacillus reuteri CF48-3A strain: BEI HM-102 for biotransformation. The drug concentrations were measured before and after a 12-h incubation by liquid-chromatography-coupled mass spectrometry (LC–MS)
property-measured: Bacterial Biotransformation

Here's what some known entries look like.
compound: CC(C)OC(=O)C(C)(C)Oc1ccc(C(=O)c2ccc(Cl)cc2)cc1 [FENOFIBRATE]
result: Compound NOT metabolized
//
compound: CCN(CC)CCNC(=O)c1cc(S(C)(=O)=O)ccc1OC [TIAPRIDE]
result: Compound NOT metabolized
//
compound: Cc1cc(C)cc(OCC2CNC(=O)O2)c1 (centres undefined) [METAXALONE]
result: Compound NOT metabolized
//
compound: C#C[C@]1(OC(C)=O)CC[C@H]2[C@@H]3CCC4=C[C@@H](OC(C)=O)CC[C@@H]4[C@H]3CC[C@@]21C [ETHYNODIOL DIACETATE]
result: Compound NOT metabolized
//
compound: CCN(CC)CCCC(C)Nc1c2ccc(Cl)cc2nc2ccc(OC)cc12 (centres undefined) [QUINACRINE]
result: Compound NOT metabolized
//
compound: CN1CCC(=C2c3ccccc3CC(=O)c3sccc32)CC1.O=C(O)/C=C/C(=O)O [KETOTIFEN FUMARATE]
result: Compound NOT metabolized

Query :: // lookup Bacterial Biotransformation for CC(Oc1c(Cl)cccc1Cl)C1=NCCN1 (centres undefined) [LOFEXIDINE]
Result :: Compound metabolized
